Each entry below carries its reported apparent Kd (screen).
- tested.target: T1, TNFR1 (Homo sapiens, UniProt P19438)
- T1 chain: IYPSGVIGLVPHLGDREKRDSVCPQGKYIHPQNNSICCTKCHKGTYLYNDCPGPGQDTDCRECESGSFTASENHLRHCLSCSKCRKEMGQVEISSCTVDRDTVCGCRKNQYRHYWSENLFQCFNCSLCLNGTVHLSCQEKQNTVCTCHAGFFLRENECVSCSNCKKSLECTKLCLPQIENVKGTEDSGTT
- assay.notes: yeast display SC50
Please state the figure in nM; there is no need to write the unit.

INSERT INTO assay_data (binder, units_text, measured_value) VALUES
  ('Q34F (designed binder) MTLQELLREEALRRAEAEAFRYALELLAEKFPEFKEYLLDLAEEIESQIRSLSGVDVEDVRKFLDKEWAWVKELLAEHPAELAEVEAARAARLAELRAEVEAKVAA', 'nM', 0.79);

Query binder follows.
## Task Item S47M (designed binder) MTLQELLREEALRRAEAEAFRYALELLAEKFPEQKEYLLDLAEEIEMQIRSLSGVDVEDVRKFLDKEWAWVKELLAEHPAELAEVEAARAARLAELRAEVEAKVAA has what recorded apparent Kd (screen)?
## Result 0.49
